Below is a list of entries, each paired with its recorded Tmax value.
# testName: Pharmacokinetic experiment in mice
# Type: in vivo
# reportedConditions: mouse; male ICR mice, oral gavage 3 mg/kg, plasma
Note: unit min is implicit; provide only the numeric part.

GET /values?readout=Tmax&item= "O=c1nc(OCC23CC(CO2)C3)cc2n1CCc1cc(C#CC3CC3)ccc1-2"
30

With those in mind, consider the next compound.
Any idea what Tmax was measured for O=c1nc(OC[C@@H]2COCCO2)cc2n1CCc1cc(C#CC3CC3)ccc1-2 [Control compound, reference compound] ?
30

====

Measured Cmax accompanies every entry in the list below.
# testName: Pharmacokinetic experiment in mice
# Format: in vivo
# reportedConditions: mouse; male ICR mice, oral gavage 3 mg/kg, plasma
State the answer as a number, implicitly in ng/mL.

Please give the measured Cmax for this molecule: "O=c1nc(OCC23CC(CO2)C3)cc2n1CCc1cc(C#CC3CC3)ccc1-2"
14800

Okay, now this molecule:
Given the entry O=c1nc(OC[C@@H]2COCCO2)cc2n1CCc1cc(C#CC3CC3)ccc1-2 [Control compound, reference compound] , report its measured Cmax.
4120

====

# targetOfAssay: human GPR84 receptor (Homo sapiens)
# Sequence (Q9NQS5 whole entry): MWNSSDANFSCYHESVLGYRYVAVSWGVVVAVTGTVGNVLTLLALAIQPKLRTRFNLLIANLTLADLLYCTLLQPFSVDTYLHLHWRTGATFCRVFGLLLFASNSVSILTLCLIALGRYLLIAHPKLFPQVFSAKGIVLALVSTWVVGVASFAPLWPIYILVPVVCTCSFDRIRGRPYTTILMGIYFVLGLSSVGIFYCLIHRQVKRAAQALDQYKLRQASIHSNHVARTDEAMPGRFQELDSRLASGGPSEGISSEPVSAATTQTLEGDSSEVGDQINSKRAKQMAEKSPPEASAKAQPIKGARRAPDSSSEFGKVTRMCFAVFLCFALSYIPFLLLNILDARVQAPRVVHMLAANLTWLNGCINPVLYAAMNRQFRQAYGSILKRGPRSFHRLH
# testName: GPR84 antagonistic effect determination (cAMP assay, forskolin and 6-OAU stimulation)
# reportedConditions: CHO stably transfected cell line highly expressing human GPR84; 2.5 μM Forskolin & 200 nM 6-OAU; cAMP readout; read-out: Antagonistic effect against GPR84, IC50
measuredQuantity: pIC50
Here pIC50 is given on a logarithmic scale as minus log10 of the concentration in mol/L.

// returns reported pIC50 for input "O=c1nc(OCC23CC(CO2)C3)cc2n1CCc1cc(C#CC3CC3)ccc1-2"
7.56

====

# testName: Pharmacokinetic experiment in mice
# Format: in vivo
# reportedConditions: mouse; male ICR mice, oral gavage 3 mg/kg, plasma
measuredQuantity: AUC(0-t) (ng·h/mL)
Give the quantity in ng·h/mL, number only.

Fill blank: measured AUC(0-t) of the compound O=c1nc(OC[C@@H]2COCCO2)cc2n1CCc1cc(C#CC3CC3)ccc1-2 [Control compound, reference compound] is ____.
7280

Next:
Would you mind telling me what AUC(0-t) value was observed for "O=c1nc(OCC23CC(CO2)C3)cc2n1CCc1cc(C#CC3CC3)ccc1-2" ?
54400

FYI, the data here is from patent US20240287064A1.
